Biological target: T1, human GIP receptor (human) (UniProt P48546)
T1 sequence (looked up): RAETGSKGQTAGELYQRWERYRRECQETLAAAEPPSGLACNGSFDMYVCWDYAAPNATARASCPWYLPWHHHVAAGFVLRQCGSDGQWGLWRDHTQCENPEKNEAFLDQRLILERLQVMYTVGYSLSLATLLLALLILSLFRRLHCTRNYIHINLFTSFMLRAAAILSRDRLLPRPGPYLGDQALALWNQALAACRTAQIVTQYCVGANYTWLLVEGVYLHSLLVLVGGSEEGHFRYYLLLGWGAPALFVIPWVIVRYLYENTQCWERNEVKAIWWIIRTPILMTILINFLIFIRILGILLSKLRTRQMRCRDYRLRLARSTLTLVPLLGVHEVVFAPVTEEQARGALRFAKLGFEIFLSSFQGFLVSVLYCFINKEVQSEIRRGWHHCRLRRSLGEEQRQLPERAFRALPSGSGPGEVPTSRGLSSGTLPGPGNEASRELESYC
Assay: cell-based or functional assay
Starred links: 1 amine or outer side, 2 acyl side, 3 side chain; linkers in the order of their positions; H or OH if unused. Non-standard residues stand in square brackets, D forms with d. Groups on a side chain read outwards from the residue. No end group written: not given here. *: point of attachment. C20 diacid = O=C(O)CCCCCCCCCCCCCCCCCCC(=O)*; αMePhe(2-F) = C[C@](N)(Cc1ccccc1F)C(=O)O; γGlu = O=C(O)[C@H](CCC(=O)[*:2])N[*:1]; αMeL = CC(C)C[C@](C)(N)C(=O)O; Orn = NCCC[C@H](N)C(=O)O; AEEA = NCCOCCOCC(=O)O; Aib = CC(C)(N)C(=O)O
Listed here: items and their measured Relative cAMP EC50.

{"columns": ["Binder", "Relative cAMP EC50, nM"],
 "data": [
  ["Y[Aib]QGTFTSDYSI[αMeL]LDKIAAK([AEEA-AEEA-γGlu-C20 diacid])QFVQWLIE[Aib]GPSSGEPPPSEG-NH2 (ends and bridges not checked) [Example 323]", 0.232],
  ["Y[Aib]QGT[αMePhe(2-F)]TSDYSILLDKAAQK[Orn]FIEYLIEGGPSSGEPPPSEG-NH2 (not fully specified (residue 20)) [Example 306]", 0.142],
  ["YXQGTFTSDXXQXLDXKAQXQFIQXLIEXGPSSGAPPPSGGGE (not fully specified; non-natural residues; γ-Glu-C18 diacid acyl; C-terminal amide; synthetic construct; SITE 2: note = 2-Aminoisobutyric Acid; SITE 10: note = 3-(4-Pyridyl)-L-alanine; SITE 11: note = alpha-methyl-L-serine; SITE 13: note = alpha-methyl-leucine; SITE 16: note = L-ornithine; SITE 17: note = Lysine is chemically modified through conjugation of the epsilon-amino group) [Example 1137]", 0.0334],
  ["YXQGTFTSDXSKXLDKKAQXAFIEYLIEXGESSGEPPPSGS (synthetic construct; SITE 2: note = 2-Aminoisobutyric Acid; SITE 10: note = 3-(4-Pyridyl)-L-alanine; SITE 13: note = alpha-methyl-leucine; SITE 17: note = Lysine is chemically modified through conjugation of the epsilon-amino group of the Lysine side chain with (2-[2-(2-Amino-ethoxy)-ethoxy]-acetyl)) [Example 282]", 0.163],
  ["YXQGTFTSDXSQXLDXKAQXAFIEYLIAGGPSSGEPPPSGSE (synthetic construct; SITE 2: note = 2-Aminoisobutyric Acid; SITE 10: note = 3-(4-Pyridyl)-L-alanine; SITE 13: note = alpha-methyl-leucine; SITE 16: note = L-ornithine; SITE 17: note = Lysine is chemically modified through conjugation of the epsilon-amino group of the Lysine side chain with (gamma-Gl)) [Example 1008]", 0.14]
]}

Provenance of the data: patent US20240270821A1
